tested on: C. albicans; test: Minimum inhibitory concentration for fungi, tube dilution, C. albicans (Table IV); details: Candida albicans, 48 h, read-out: Minimum Inhibitory Concentration, C. albicans
property label: MIC

// query API: value(readout=MIC, system=C. albicans) for record Cc1cccc(CC(O)(Cc2cccc(C)c2)C(C)N2CCN(C)CC2)c1 (stereo not drawn) [IL]
// result 32 µg/mL

// query Query CC1CCCN(CCN2CCN(C(C)C(=Cc3ccccc3)Cc3ccccc3)CC2)C1 (stereo not drawn) [XXXIV] next
// result 16 µg/mL

// query Next up: CN1CCN(CCCCCCN2CCN(CCC(=Cc3ccccc3)Cc3ccccc3)CC2)CC1 [LXV]
// result 32 µg/mL

// query Likewise for CC(N1CCN(C)CC1)C(O)(Cc1ccc(Cl)cc1)Cc1ccc(Cl)cc1 (stereo not drawn) [XLVIII] ?
// result 8 µg/mL

// query Next: CC(N1CCN(CCN2CCN(Cc3ccccc3)CC2)CC1)C(O)(Cc1ccccc1)Cc1ccccc1 (stereo not drawn) [XII]
// result 64 µg/mL

// query What about this compound? CC(N1CCN(CCN2CCN(C)CC2)CC1)C(O)(Cc1ccccc1)Cc1ccccc1 (stereo not drawn) [X]
// result 16 µg/mL

// query Ok, now CC(N1CCN(C)CC1)C(O)(Cc1ccccc1)Cc1ccccc1 (stereo not drawn) [LI]
// result 256 µg/mL

// query Similarly, CC1CCCCN1CCN1CCN(C(C)C(=Cc2ccccc2)Cc2ccccc2)CC1 (stereo not drawn) [XXXIII] ?
// result 256 µg/mL

// query What about this compound? CC1CCN(CCN2CCN(C(C)C(=Cc3ccccc3)Cc3ccccc3)CC2)CC1 (stereo not drawn) [XXXV]
// result 8 µg/mL
